Data provenance: the NIST ThermoML archive (doi:10.1016/j.jct.2015.10.004)

# measurement.description: mn = molality of the nth substance listed, in mol/kg
# condition.label: 308.15 K; 101 kPa; Liquid; Alternating current cell with electrodes; m1 = 0.05
reported.endpoint: electrical conductivity

Record summary for C[C@H](N)C(=O)N[C@@H](CCC(N)=O)C(=O)O [L-alanyl-L-glutamine] + O : reported electrical conductivity = 0.00427 S/m

The reported electrical conductivity of the compound NCC(=O)N[C@@H](CCC(N)=O)C(=O)O [glycyl-l-glutamine] + O was 0.00428 S/m

Value of electrical conductivity reported for the compound CC(C)[C@H](NC(=O)CN)C(=O)O [glycyl-L-valine] + O is 0.00407 S/m

Per the record, CC(C)C[C@H](NC(=O)CN)C(=O)O [glycyl-L-leucine] + O has electrical conductivity of 0.00406 S/m

Note to self: electrical conductivity recorded for NCC(=O)NCC(=O)O [glycylglycine] + O was 0.00429 S/m

---

# measurement.description: mn = molality of the nth substance listed, in mol/kg
# condition.label: 308.15 K; 101 kPa; Liquid; Alternating current cell with electrodes; m1 = 0.1
reported.endpoint: electrical conductivity (S/m)
Report as a plain number; the unit S/m is understood.

Lookup result for CC(C)[C@H](NC(=O)CN)C(=O)O [glycyl-L-valine] + O ; measured electrical conductivity: 0.00705

// sample NCC(=O)N[C@@H](CCC(N)=O)C(=O)O [glycyl-l-glutamine] + O , its electrical conductivity was 0.00708

The recorded electrical conductivity for entry C[C@H](N)C(=O)N[C@@H](CCC(N)=O)C(=O)O [L-alanyl-L-glutamine] + O equals 0.00707

Just so you know, measured electrical conductivity for CC(C)C[C@H](NC(=O)CN)C(=O)O [glycyl-L-leucine] + O came out at 0.00703

For this molecule ( NCC(=O)NCC(=O)O [glycylglycine] + O ), measured electrical conductivity is 0.00724

---

Entries annotated with measured electrical conductivity
# measurement.description: mn = molality of the nth substance listed, in mol/kg
# condition.label: 293.15 K; 101 kPa; Liquid; Alternating current cell with electrodes; m1 = 0.15
Enter your answer as a number in S/m; do not include the unit.

So for C[C@H](N)C(=O)N[C@@H](CCC(N)=O)C(=O)O [L-alanyl-L-glutamine] + O , the logged electrical conductivity turned out to be 0.00766

electrical conductivity recorded for this compound, CC(C)[C@H](NC(=O)CN)C(=O)O [glycyl-L-valine] + O , is 0.00742

The reported value for CC(C)C[C@H](NC(=O)CN)C(=O)O [glycyl-L-leucine] + O in terms of electrical conductivity is 0.0074

Measured electrical conductivity, NCC(=O)NCC(=O)O [glycylglycine] + O : 0.00745

Lab book: electrical conductivity of NCC(=O)N[C@@H](CCC(N)=O)C(=O)O [glycyl-l-glutamine] + O noted as 0.00768

---

# measurement.description: mn = molality of the nth substance listed, in mol/kg
# condition.label: 298.15 K; 101 kPa; Liquid; Alternating current cell with electrodes; m1 = 0.1
reported.endpoint: electrical conductivity (S/m)
Give just the numeric value; S/m need not be written.

Lab note: measured electrical conductivity of C[C@H](N)C(=O)N[C@@H](CCC(N)=O)C(=O)O [L-alanyl-L-glutamine] + O was 0.00599

Form: compound = NCC(=O)NCC(=O)O [glycylglycine] + O ; electrical conductivity = 0.00593

---

# measurement.description: mn = molality of the nth substance listed, in mol/kg
# condition.label: 308.15 K; 101 kPa; Liquid; Alternating current cell with electrodes; m1 = 0.15
reported.endpoint: electrical conductivity (S/m)
Please state the figure in S/m; there is no need to write the unit.

The examples below pair each entry with its known result.
                                   molecule   result
0  NCC(=O)N[C@@H](CCC(N)=O)C(=O)O [glycyl-l-glutamine] + O  0.00999
1  C[C@H](N)C(=O)N[C@@H](CCC(N)=O)C(=O)O [L-alanyl-L-glutamine] + O  0.00985
2  CC(C)C[C@H](NC(=O)CN)C(=O)O [glycyl-L-leucine] + O  0.00987
3       NCC(=O)NCC(=O)O [glycylglycine] + O   0.0101

Field: next molecule
Given item CC(C)[C@H](NC(=O)CN)C(=O)O [glycyl-L-valine] + O , the value recorded as its electrical conductivity is 0.00989

---

# measurement.description: mn = molality of the nth substance listed, in mol/kg
# condition.label: 308.15 K; 101 kPa; Liquid; Alternating current cell with electrodes; m1 = 0.2
reported.endpoint: electrical conductivity (S/m)
Your answer should be a plain number; it is taken to be in S/m.

In [3]: df
Out[3]:
                                   compound  result
0       NCC(=O)NCC(=O)O [glycylglycine] + O   0.014
1  CC(C)C[C@H](NC(=O)CN)C(=O)O [glycyl-L-leucine] + O  0.0137
2  C[C@H](N)C(=O)N[C@@H](CCC(N)=O)C(=O)O [L-alanyl-L-glutamine] + O  0.0138
3  CC(C)[C@H](NC(=O)CN)C(=O)O [glycyl-L-valine] + O  0.0137

// below: electrical conductivity requested for another compound
Per the record, NCC(=O)N[C@@H](CCC(N)=O)C(=O)O [glycyl-l-glutamine] + O has electrical conductivity of 0.0139

---

# measurement.description: mn = molality of the nth substance listed, in mol/kg
# condition.label: 293.15 K; 101 kPa; Liquid; Alternating current cell with electrodes; m1 = 0.1
reported.endpoint: electrical conductivity (S/m)
Write the value in S/m as a bare number.

>>> df
                                   compound        reported_endpoint   result
0  CC(C)C[C@H](NC(=O)CN)C(=O)O [glycyl-L-leucine] + O  electrical conductivity  0.00533

Now examine the next entry.
Documented electrical conductivity of NCC(=O)NCC(=O)O [glycylglycine] + O : 0.00543

---

# measurement.description: mn = molality of the nth substance listed, in mol/kg
# condition.label: 293.15 K; 101 kPa; Liquid; Alternating current cell with electrodes; m1 = 0.2
Attribute: electrical conductivity
Quick reminder: number only, in S/m, skip the unit.

The cases that follow already have their electrical conductivity on record.
                                   compound  result
0  CC(C)[C@H](NC(=O)CN)C(=O)O [glycyl-L-valine] + O  0.0104
1  NCC(=O)N[C@@H](CCC(N)=O)C(=O)O [glycyl-l-glutamine] + O  0.0107
2       NCC(=O)NCC(=O)O [glycylglycine] + O  0.0106

Value of measured electrical conductivity for the entry CC(C)C[C@H](NC(=O)CN)C(=O)O [glycyl-L-leucine] + O : 0.0104

Sample C[C@H](N)C(=O)N[C@@H](CCC(N)=O)C(=O)O [L-alanyl-L-glutamine] + O ; electrical conductivity observed: 0.0107

---

The following compounds are listed with their measured electrical conductivity values.
# measurement.description: mn = molality of the nth substance listed, in mol/kg
# condition.label: 313.15 K; 101 kPa; Liquid; Alternating current cell with electrodes; m1 = 0.05
Write it as a number; the unit S/m goes unstated.

Example cases with answers are listed next.
>>> df
                                   compound   result
0  C[C@H](N)C(=O)N[C@@H](CCC(N)=O)C(=O)O [L-alanyl-L-glutamine] + O  0.00463
1  CC(C)C[C@H](NC(=O)CN)C(=O)O [glycyl-L-leucine] + O  0.00455
2       NCC(=O)NCC(=O)O [glycylglycine] + O  0.00474

Just so you know, measured electrical conductivity for CC(C)[C@H](NC(=O)CN)C(=O)O [glycyl-L-valine] + O came out at 0.00456

# compound NCC(=O)N[C@@H](CCC(N)=O)C(=O)O [glycyl-l-glutamine] + O ; its electrical conductivity = 0.00464

---

# measurement.description: mn = molality of the nth substance listed, in mol/kg
# condition.label: 303.15 K; 101 kPa; Liquid; Alternating current cell with electrodes; m1 = 0.2
reported.endpoint: electrical conductivity (S/m)
Please respond with the number in S/m and leave the unit unwritten.

A selection of reference data follows.
In [3]: df
Out[3]:
                                   molecule  unit_abbreviation  result
0  CC(C)C[C@H](NC(=O)CN)C(=O)O [glycyl-L-leucine] + O                S/m  0.0124
1  CC(C)[C@H](NC(=O)CN)C(=O)O [glycyl-L-valine] + O                S/m  0.0124
2  NCC(=O)N[C@@H](CCC(N)=O)C(=O)O [glycyl-l-glutamine] + O                S/m  0.0125
3       NCC(=O)NCC(=O)O [glycylglycine] + O                S/m  0.0125

// recorded electrical conductivity for C[C@H](N)C(=O)N[C@@H](CCC(N)=O)C(=O)O [L-alanyl-L-glutamine] + O : 0.0124
